Test: lung delivery versus plasma after nebulization in LPS lung injury model
Assay type: in vivo
Details: inhaled, nebulized, read-out: enhanced lung delivery versus plasma
Assay endpoint: Kp

>>> numeric_value("CN1CCC/C1=N/c1ncn([C@H]2C[C@H](O)[C@@H](CO)O2)c(=O)n1")
6

Reference for the values: patent US20230416294A1
